Data origin: paper PMC5540273

# System: CAMK1D;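 further: KINOMEscan kinase panel screen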
# Condition: concentration: 1 μM, replicates: in singlicate; n = 1
Item-by-item account of %Inh
Be sure to follow the number with its unit.

Sample answers from the record:
- Structure smiles: "Cc1cc(-c2ccnc(Nc3cccc(C#N)c3)n2)cc(C)c1O"
  %Inh: "8%"
- Structure smiles: "Fc1cc(Cl)ccc1Nc1ccnc2cc(-c3ccc(CN4CCSCC4)o3)ccc12"
  %Inh: "11%"
- Structure smiles: "Cc1ccc(O)cc1Nc1ccnc2cc(-c3ccc(CN4CCCCC4)o3)ccc12"
  %Inh: "4%"
- Structure smiles: "CNc1nccc(-c2ccc3c(N)n[nH]c3c2)n1"
  %Inh: "28%"
- Structure smiles: "COc1cccc(NC(=O)NCCNc2ccnc(Nc3ccc(F)cc3)n2)c1"
  %Inh: "8%"

Query: Which %Inh value is on record for `Cl.N#CCc1ccc(Nc2nccc(Nc3ccc(Oc4ccccc4)cc3)n2)cc1` ?
Response: 0%

Query: Which %Inh value is on record for `CN(C)CCNS(=O)(=O)c1ccc(-c2ccnc3[nH]ccc23)cc1` ?
Response: 66%

Query: Which %Inh value is on record for `CCNc1nccc(-c2c(-c3ccc(F)cc3)ncn2C2CCN(C)CC2)n1` ?
Response: 17%

Query: Which %Inh value is on record for `Cl.O=C(Nc1ccc(Oc2ccc3[nH]c(NC(=O)c4ccco4)nc3c2)cc1)Nc1cc(C(F)(F)F)ccc1F` ?
Response: 0%
